- Tested on: normal CRL2120 human skin fibroblasts
- Experiment notes: Neutral red (NR) uptake cytotoxicity assay, normal CRL2120 fibroblasts
- Assay type: cell-based
- Experimental setup: Skin fibroblast, 72 h incubation
Observed property: IC50

# input Return the recorded IC50 value; entry: Cc1cc(O)c2c(c1)C(=O)c1cccc(O)c1C2=O
# output > 157 µM

# input Return IC50 for the following molecule: CCCC1=C(O)C(=O)C=C(O)C1=O
# output > 222 µM

The record that follows has no IC50 shown yet.
# input Give IC50 for COC(=O)c1c(O)cc2c(c1C)C(=O)c1c(O)cc(O)cc1C2=O
# output > 122 µM

###

- System: A549 human non-small cell lung cancer (NSCLC) cell line
- Experiment notes: Neutral red (NR) uptake cytotoxicity assay, A549
- Type: cell-based
- Experimental setup: Homo sapiens, A549, 72 h, neutral red assay, 72 h incubation
pIC50: −log10 of the molar value.
Kindly supply the reported pIC50 values for the records listed here.

Here's what some known entries look like.
# input Answer with reported pIC50 of CCCCC=CCCCCCCCCCCCCCC1=C(OC)C(=O)C=C(OC)C1=O [Compound 12]
# output < 3.89

# input Give recorded pIC50. CCCC1=C(O)C(=O)C=C(O)C1=O [Compound 6]
# output < 3.65

We next turn to a different compound, shown below.
# input Answer with the recorded pIC50 of CCC1=C(O)C(=O)C=C(O)C1=O [Compound 5] only.
# output < 3.62

###

- Test system: SPC212 human mesothelioma cell line
- Experiment notes: Neutral red (NR) uptake cytotoxicity assay, SPC212
- Assay type: cell-based
- Experimental setup: Homo sapiens, 72 h, neutral red assay, 72 h incubation; read-out: IC50 SPC212
Observed property: IC50

Examples with their reported IC50 follow.
# input Quote SPC212 human mesothelioma cell line IC50 for entry CCCCCCCC1=C(O)C(=O)C=C(O)C1=O [Compound 8] .
# output < 10 µM

# input Provide IC50, recorded with SPC212 human mesothelioma cell line, of CCCC1=C(O)C(=O)C=C(O)C1=O [Compound 6]
# output > 222 µM

# input Output reported IC50 of the compound CCCCC=CCCCCCCCCCCCCCC1=C(OC)C(=O)C=C(OC)C1=O [Compound 12] on SPC212 human mesothelioma cell line.
# output > 129 µM

# input Report value: IC50, system: SPC212 human mesothelioma cell line, compound: COC(=O)c1c(O)cc2c(c1C)C(=O)c1c(O)cc(O)cc1C2=O [Compound 3]
# output > 122 µM

# input System SPC212 human mesothelioma cell line. Read-out IC50. Item CCC1=C(O)C(=O)C=C(O)C1=O [Compound 5] . Report value.
# output > 238 µM

New cases:
# input Fetch value of IC50 on SPC212 human mesothelioma cell line for CCCCCCCCCCCCCCCC1=C(O)C(=O)C=C(O)C1=O [Compound 10] .
# output < 10 µM

###

Kindly supply the reported pIC50 values for the records listed here.
- Tested on: DLD-1 colorectal adenocarcinoma cell lines
- Experiment notes: Neutral red (NR) uptake cytotoxicity assay, DLD-1
- Type: cell-based, human
- Experimental setup: Homo sapiens, DLD-1; neutral red assay, 72 h incubation; read-out: IC50 DLD-1
pIC50: −log10 of the molar value.

Reference set, count: 4
# input Please give measured pIC50 of the following entry: CCC1=C(O)C(=O)C=C(O)C1=O
# output < 3.62

# input Given the molecule CCCCCCCC1=C(O)C(=O)C=C(O)C1=O , write its reported pIC50.
# output < 3.77

# input Indicate its recorded pIC50; the molecule in question is CCCCC1=C(O)C(=O)C=C(O)C1=O
# output < 3.69

# input Tell me its pIC50 given CCCC1=C(O)C(=O)C=C(O)C1=O as the entry.
# output < 3.65

The record that follows has no pIC50 shown yet.
# input Provide only the value of recorded pIC50 for CCCCC=CCCCCCCCCCCCCCC1=C(OC)C(=O)C=C(OC)C1=O
# output < 3.89

Reference for the values: paper PMC5175396
